Form field: log10(Ki) (one value per entry).
STUDY TARGET: plasmepsin II from Plasmodium falciparum (Plm II) (Plasmodium falciparum)
Construct: made in house; host or cells: Escherichia coli
Sequence (P46925 125-453): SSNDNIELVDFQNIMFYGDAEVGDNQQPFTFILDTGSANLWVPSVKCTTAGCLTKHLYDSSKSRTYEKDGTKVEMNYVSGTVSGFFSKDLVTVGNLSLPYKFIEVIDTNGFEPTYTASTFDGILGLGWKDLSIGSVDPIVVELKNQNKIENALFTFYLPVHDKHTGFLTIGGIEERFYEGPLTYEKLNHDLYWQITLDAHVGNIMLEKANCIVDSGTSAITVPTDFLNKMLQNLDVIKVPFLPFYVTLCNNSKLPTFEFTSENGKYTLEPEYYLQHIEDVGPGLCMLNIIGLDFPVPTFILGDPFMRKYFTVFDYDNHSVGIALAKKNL
METHOD DESCRIPTION: Plasmepsin II inhibition assay, hydrolysis of chromogenic substrate
Assay type: biochemical
CONDITION LABEL: 25° C., 10 mM sodium formate, 2% DMSO, pH 4.0; fit to competitive inhibition; read-out: Ki Plm II
Quick note: numbers are log10 of Ki, with nM as the unit.

Task: Report log10(Ki) for `CC(C)[C@H](NC(=O)c1cc2ccccc2o1)C(=O)N[C@@H](Cc1ccccc1)[C@H](O)C(=O)N1CSC(C)(C)[C@H]1C(=O)NC(C)(C)C`
Output: 3.34

Task: Dear colleague, please send me the reported log10(Ki) for `Cc1cccc(C)c1OCC(=O)N[C@@H](Cc1ccccc1)[C@H](O)C(=O)N1CSC(C)(C)[C@H]1C(=O)NCc1ccccc1` when you can.
Output: 1.98

Task: Indicate the recorded log10(Ki) value for this compound: `CSC[C@H](NC(=O)COc1c(C)cccc1C)C(=O)N[C@@H](Cc1ccccc1)[C@H](O)C(=O)N1CSC(C)(C)[C@H]1C(=O)NC(C)(C)C`
Output: 2.70

Task: Report log10(Ki), nothing else, for this compound: `CC(C)(C)NC(=O)[C@H]1N(C(=O)[C@@H](O)[C@H](Cc2ccccc2)NC(=O)[C@H](Cc2ccccc2)NC(=O)COc2cccc3cnccc23)CSC1(C)C`
Output: 2.27

Task: Output log10(Ki) of Cc1cccc(C)c1OCC(=O)NC(Cc1ccccc1)C(O)C(=O)N1CSC(C)(C)C1C(=O)NCc1ccc(O)cc1 (stereo not shown)
Output: 2.44

Task: Please look at this compound and report its log10(Ki): `CCC[C@H](NC(=O)COc1cccc2cnccc12)C(=O)N[C@@H](Cc1ccccc1)[C@H](O)C(=O)N1CSC(C)(C)[C@H]1C(=O)NC(C)(C)C`
Output: 2.35

Task: Input CC(C)C(NC(=O)COc1ccccc1)C(=O)NC(Cc1ccccc1)C(O)C(=O)N1CSC(C)(C)C1C(=O)NC(C)(C)C (stereo not shown) , output reported log10(Ki).
Output: 3.25

Task: Please supply the value of reported log10(Ki) for the item `CC(C)(C)NC(=O)[C@H]1N(C(=O)[C@@H](O)[C@H](Cc2ccccc2)NC(=O)COc2cccc(Cl)c2)CSC1(C)C`
Output: 3.03

Alright, here's another compound for you.
Task: Could you please provide reported log10(Ki) for `Cc1cccc(CNC(=O)[C@H]2N(C(=O)[C@@H](O)[C@H](Cc3ccccc3)NC(=O)COc3c(C)cccc3C)CSC2(C)C)c1` ? Thanks!
Output: 1.61

Numbers sourced from patent US7560482B2.
